# measurement target: KRAS G12D (Homo sapiens (Human), UniProt P01116+P62937, G12D)
# Sequence (P01116-2 other isoform, or with tags, fused parts or gaps G12D): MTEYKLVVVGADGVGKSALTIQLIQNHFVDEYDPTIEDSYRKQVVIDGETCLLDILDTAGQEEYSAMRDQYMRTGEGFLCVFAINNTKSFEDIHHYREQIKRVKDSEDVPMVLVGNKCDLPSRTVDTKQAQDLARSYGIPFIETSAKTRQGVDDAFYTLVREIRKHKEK
# Sequence (P62937 whole entry): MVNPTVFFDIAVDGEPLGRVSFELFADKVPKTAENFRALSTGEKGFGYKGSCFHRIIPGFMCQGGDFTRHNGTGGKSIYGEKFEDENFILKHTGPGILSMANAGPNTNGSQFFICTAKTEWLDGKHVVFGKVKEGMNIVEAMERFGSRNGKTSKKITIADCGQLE
# test summary: Ras-Raf (BRAF RBD) disruption / FRET / MOA assay, KRAS G12D
# Assay type: biochemical
# recorded conditions: Ras-Raf disruption/FRET/MOA assay; class symbols; read-out: KRAS G12D FRET data IC50
property: IC50

compound	IC50
C=CC(=O)N1CC(N2CCN(C(=O)N(C)[C@H](C(=O)N[C@H]3Cc4nc(cs4)-c4ccc5c(c4)c(c(-c4cccnc4[C@H](C)OC)n5CC)CC(C)(C)COC(=O)[C@@H]4CCCN(N4)C3=O)C(C)C)CC2)C1 (atropisomer, axis not shown) [Example A668]	1 to 10 µM

# evaluate next
GET /values?readout=IC50&system=KRAS G12D (Homo sapiens (Human), UniProt P01116+P62937, G12D)&item= C=CC(=O)N1CC[C@H](C(=O)N(C)[C@H](C(=O)N[C@H]2CC3=NN=C(S3)c3ccc4c(c3)c(c(-c3cccnc3COC)n4CC)CC(C)(C)COC(=O)[C@@H]3CCCN(N3)C2=O)C(C)C)C1 [Example A236]
> 10 µM

----------
# measurement target: NRAS G12C (Homo sapiens (Human), UniProt P01111+P62937, G12C)
# Sequence (P01111 whole entry G12C): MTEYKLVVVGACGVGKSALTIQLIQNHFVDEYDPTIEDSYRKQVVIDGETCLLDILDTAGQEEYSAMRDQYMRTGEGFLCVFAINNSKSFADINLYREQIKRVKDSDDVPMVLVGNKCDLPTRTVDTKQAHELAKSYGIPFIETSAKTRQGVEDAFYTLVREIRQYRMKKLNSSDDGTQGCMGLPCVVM
# Sequence (P62937 whole entry): as the sequence (P62937 whole entry) above
# test summary: Ras-Raf (BRAF RBD) disruption / FRET / MOA assay, NRAS G12C
# Type: biochemical
# recorded conditions: read-out: IC50* NRAS G12C FRET data
Quick reference for IC50 among some compounds

compound	meas value
CCn1c(-c2cccnc2[C@H](C)OC)c2c3cc(ccc31)-c1cccc(c1)C[C@H](NC(=O)[C@H](C(C)C)N(C)C(=O)N1CCC13CN(C(=O)C#CC(C)(C)N(C)C)C3)C(=O)N1CCC[C@H](N1)C(=O)OCC(C)(C)C2 [Example A672]	10 to 100 nM
C=CC(=O)N1CC[C@]2(C1)OCN([C@H](C(=O)N[C@H]1Cc3cc(cc(C(F)F)c3)-c3ccc4c(c3)c(c(-c3cccnc3[C@H](C)OC)n4CC)CC(C)(C)COC(=O)[C@@H]3CCCN(N3)C1=O)C(C)C)C2=O (atropisomer, axis not shown) [Example A557]	100 to 1000 nM
CC#CC(=O)N1CCC(C(=O)N(C)[C@H](C(=O)N[C@H]2Cc3nc(cs3)-c3ccc4c(c3)c(c(-c3cccnc3[C@H](C)OC)n4CC)CC(C)(C)COC(=O)[C@@H]3CCCN(N3)C2=O)C(C)C)C1 (atropisomer, axis not shown) [Example A168]	1000 to 10000 nM

Need IC50 of C=CC(=O)N1CC[C@H](C(=O)N(C)[C@H](C(=O)N[C@H]2Cc3cc(O)cc(c3)-c3ccc4c(c3)c(c(-c3ccc(CN(C)C)c(COC)c3)n4CC)CC(C)(C)COC(=O)[C@@H]3CCCN(N3)C2=O)C(C)C)C1 [Example A111] , thanks.
100 to 1000 nM

----------
# measurement target: KRAS G12D (Homo sapiens (Human), UniProt P01116+P62937, G12D)
# test summary: Ras-Raf (BRAF RBD) disruption / FRET / MOA assay, KRAS G12D
# Type: biochemical
# recorded conditions: Ras-Raf disruption/FRET/MOA assay; class symbols; read-out: KRAS G12D FRET data IC50
property: IC50

Please review the following examples before continuing.
compound	meas value
C=CC(=O)N1CCC2(CC1)CCN([C@H](C(=O)N[C@H]1Cc3cc(O)cc(c3)-c3ccc4c(c3)c(c(-c3ccccc3CCOC)n4CC)CC(C)(C)COC(=O)[C@@H]3CCCN(N3)C1=O)C(C)C)C2=O	> 10 µM
C=CC(=O)N1CC[C@H](C(=O)N(C)[C@H](C(=O)N[C@H]2Cc3cc(O)cc(c3)-c3ccc4c(c3)c(c(-c3ccccc3CCN3CCCC3)n4CC)CC(C)(C)COC(=O)[C@@H]3CCCN(N3)C2=O)C(C)C)C1	> 10 µM
C=CC(=O)N1C[C@H](C)N(C(=O)N(C)[C@H](C(=O)N[C@H]2Cc3nc(cs3)-c3ccc4c(c3)c(c(-c3cccnc3[C@H](C)OC)n4CC)CC(C)(C)COC(=O)[C@@H]3CCCN(N3)C2=O)C(C)C)CC12CC2 (atropisomer, axis not shown)	1 to 10 µM

// next entry
What does the data say about its IC50? Entry: `C=CC(=O)N1CC[C@H](C(=O)N(C)[C@H](C(=O)N[C@H]2Cc3nc(cs3)-c3ccc4c(n3)c(c(-c3cccnc3[C@H](C)OC)n4CC)CC(C)(C)COC(=O)[C@@H]3CCCN(N3)C2=O)C(C)C)C1`
> 10 µM

----------
Reported values of pIC50 for individual entries
# measurement target: KRAS WT (Homo sapiens (Human), UniProt P01116+P62937)
# Sequence (P01116-2 other isoform, or with tags, fused parts or gaps): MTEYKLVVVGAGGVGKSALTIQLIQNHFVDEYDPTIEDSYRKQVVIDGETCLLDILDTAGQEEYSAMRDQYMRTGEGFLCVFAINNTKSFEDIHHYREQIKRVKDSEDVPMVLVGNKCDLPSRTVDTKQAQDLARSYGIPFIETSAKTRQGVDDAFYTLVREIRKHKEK
# Sequence (P62937 whole entry): as the sequence (P62937 whole entry) above
# test summary: Ras-Raf (BRAF RBD) disruption / FRET / MOA assay, KRAS WT
# Assay type: biochemical
# recorded conditions: read-out: IC50* KRAS WT FRET data
pIC50: −log10 of the molar value.

molecule	pIC50
C=CC(=O)N1CCOC2(C1)CN(C(=O)N(C)[C@H](C(=O)N[C@H]1Cc3cccc(c3)-c3ccc4c(c3)c(c(-c3cccnc3[C@H](C)OC)n4CC(F)(F)F)CC(C)(C)COC(=O)[C@@H]3CCCN(N3)C1=O)C(C)C)C2 (atropisomer, axis not shown) [Example A538]	6.00 to 7.00
C=CC(=O)N1CC[C@H](C(=O)N(C)C(C(=O)N[C@H]2C[C@H]3CN(CCO3)c3ccc4c(c3)c(c(-c3cccnc3[C@H](C)OC)n4CC)CC(C)(C)COC(=O)[C@@H]3CCCN(N3)C2=O)C(C)C)C1 (mixture of isomers) [Example A507]	< 5.00
C=CC(=O)N1CCC[C@@H]2CN(C(=O)N(C)[C@H](C(=O)N[C@H]3Cc4nc(cs4)-c4ccc5c(c4)c(c(-c4cccnc4[C@H](C)OC)n5CC)CC(C)(C)COC(=O)[C@@H]4CCCN(N4)C3=O)C(C)C)C[C@@H]21 (atropisomer, axis not shown) [Example A619]	5.00 to 6.00
C=CC(=O)N1CC[C@H](C(=O)N(C)[C@H](C(=O)N[C@H]2Cc3cc(O)cc(c3)-c3ccc4c(c3)c(c(-c3cn(C)nc3[C@H](C)OC)n4CC)CC(C)(C)COC(=O)[C@@H]3CCCN(N3)C2=O)C(C)C)C1 [Example A154]	5.00 to 6.00

What does the data say about its pIC50? Entry: C=CC(=O)N1CCN(C(=O)N(C)[C@H](C(=O)N[C@H]2Cc3nc(cs3)-c3ccc4c(c3)c(c(-c3cccnc3[C@H](C)OC)n4CC)CC(C)(C)COC(=O)[C@@H]3CCCN(N3)C2=O)C(C)C)C[C@@H]1C (atropisomer, axis not shown) [Example A433]
7.00 to 8.00

Value lookup for pIC50; key = CCn1c(-c2cccnc2[C@H](C)OC)c2c3cc(ccc31)-c1csc(n1)C[C@H](NC(=O)[C@H](C(C)C)N(C)C(=O)N1C[C@@H]3CN(C(=O)C#CC(C)(C)N(C)C)CC[C@@H]31)C(=O)N1CCC[C@H](N1)C(=O)OCC(C)(C)C2 (atropisomer, axis not shown) [Example A625]
6.00 to 7.00

Reported pIC50 for C=CC(=O)N1CC[C@H]2[C@@H]1CN2C(=O)N(C)[C@H](C(=O)N[C@H]1Cc2nc(cs2)-c2ccc3c(c2)c(c(-c2cccnc2[C@H](C)OC)n3CC)CC(C)(C)COC(=O)[C@@H]2CCCN(N2)C1=O)C(C)C (atropisomer, axis not shown) [Example A547] : what is it?
6.00 to 7.00

Quick check: pIC50 of C=CC(=O)N1CCN(C(=O)N(C)[C@H](C(=O)N[C@H]2Cc3nc(cs3)-c3ccc4c(c3)c(c(-c3cccnc3[C@H](C)OC)n4CC)CC(C)(C)COC(=O)[C@@H]3CCCN(N3)C2=O)C(C)C)[C@H]2C[C@H]21 (atropisomer, axis not shown) [Example A737] ?
7.00 to 8.00

----------
Overview of reported IC50 across a group of compounds:
# measurement target: KRAS G12S (Homo sapiens (Human), UniProt P01116+P62937, G12S)
# Sequence (P01116-2 other isoform, or with tags, fused parts or gaps G12S, one chain of several): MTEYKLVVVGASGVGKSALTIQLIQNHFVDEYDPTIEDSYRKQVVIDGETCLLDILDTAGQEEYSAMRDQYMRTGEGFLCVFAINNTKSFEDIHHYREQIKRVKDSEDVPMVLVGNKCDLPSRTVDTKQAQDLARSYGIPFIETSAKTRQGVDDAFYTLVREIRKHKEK
# test summary: Ras-Raf (BRAF RBD) disruption / FRET / MOA assay, KRAS G12S
# Type: biochemical
# recorded conditions: Ras-Raf disruption/FRET/MOA assay; class symbols; read-out: KRAS G12S FRET data IC50

compound	IC50
CO[C@@H](C)c1ncccc1-c1c2c3cc(ccc3n1CC(F)(F)F)-c1csc(n1)C[C@H](NC(=O)CCOC1CN(C(=O)C#CC(C)(C)N3CCC3)C1)C(=O)N1CCC[C@H](N1)C(=O)OCC(C)(C)C2 (atropisomer, axis not shown)	1 to 10 µM
C=CC(=O)N1C[C@@H](C)[C@H](C(=O)N(C)[C@H](C(=O)N[C@H]2Cc3cccc(c3)-c3ccc4c(c3)c(c(-c3cccnc3[C@H](C)OC)n4CC)CC(C)(C)COC(=O)[C@@H]3CCCN(N3)C2=O)C(C)C)C1 (atropisomer, axis not shown)	> 10 µM
CO[C@@H](C)c1ncccc1-c1c2c3cc(ccc3n1CC(F)(F)F)N1CCO[C@@H](C[C@H](NC(=O)[C@H](C(C)C)N3CC[C@@]4(CCN(C(=O)C#CC(C)(C)N(C)C)C4)C3=O)C(=O)N3CCC[C@H](N3)C(=O)OCC(C)(C)C2)C1 (atropisomer, axis not shown)	1 to 10 µM

What value of measured IC50 is listed for CO[C@@H](C)c1ncccc1-c1c2c3cc(ccc3n1CC(F)(F)F)-c1cc(cc(C(F)F)c1)C[C@H](NC(=O)[C@@H](COC1CN(C(=O)C#CC(C)(C)N(C)C)C1)C(C)C)C(=O)N1CCC[C@H](N1)C(=O)OCC(C)(C)C2 (atropisomer, axis not shown) ?
> 10 µM

Which IC50 reading was recorded for the compound `C=CC(=O)N1CC[C@H](C(=O)N(C)[C@H](C(=O)N[C@H]2Cc3cc(N)cc(c3)-c3ccc4c(c3)c(c(-c3ccccc3COC)n4CC)CC(C)(C)COC(=O)[C@@H]3CCCN(N3)C2=O)C(C)C)C1` ?
> 10 µM

Fill in: IC50 of C=CC(=O)Nc1cnc(C(=O)N(C)[C@H](C(=O)N[C@H]2Cc3cc(O)cc(c3)-c3ccc4c(c3)c(c(-c3cccnc3[C@H](C)OC)n4CC)CC(C)(C)COC(=O)[C@@H]3CCCN(N3)C2=O)C(C)C)s1 (atropisomer, axis not shown) is ___
1 to 10 µM

Name the reported IC50 value associated with the compound `C=CC(=O)N1CC[C@H](C(=O)N(C)[C@H](C(=O)N[C@H]2Cc3cc(O)cc(c3)-c3ccc4c(c3)c(c(-c3ccccc3OC)n4CC)CC(C)(C)COC(=O)[C@@H]3CCCN(N3)C2=O)C(C)C)C1`
1 to 10 µM

Need IC50, item C=CC(=O)N1CC[C@H](C(=O)N(C)[C@H](C(=O)N[C@H]2Cc3cccc(c3)-c3ccc4c(c3)c(c(-c3cccnc3[C@H](C)OC)n4CC)CC(C)(C)COC(=O)[C@@H]3CCCN(N3)C2=O)C2CC2)C1 (atropisomer, axis not shown)
1 to 10 µM

Values compiled from patent US11566007B2.
